# SYSTEM: Muscarinic acetylcholine receptor M2 (Homo sapiens) (UniProt P08172)
# Sequence (P08172 whole entry, looked up): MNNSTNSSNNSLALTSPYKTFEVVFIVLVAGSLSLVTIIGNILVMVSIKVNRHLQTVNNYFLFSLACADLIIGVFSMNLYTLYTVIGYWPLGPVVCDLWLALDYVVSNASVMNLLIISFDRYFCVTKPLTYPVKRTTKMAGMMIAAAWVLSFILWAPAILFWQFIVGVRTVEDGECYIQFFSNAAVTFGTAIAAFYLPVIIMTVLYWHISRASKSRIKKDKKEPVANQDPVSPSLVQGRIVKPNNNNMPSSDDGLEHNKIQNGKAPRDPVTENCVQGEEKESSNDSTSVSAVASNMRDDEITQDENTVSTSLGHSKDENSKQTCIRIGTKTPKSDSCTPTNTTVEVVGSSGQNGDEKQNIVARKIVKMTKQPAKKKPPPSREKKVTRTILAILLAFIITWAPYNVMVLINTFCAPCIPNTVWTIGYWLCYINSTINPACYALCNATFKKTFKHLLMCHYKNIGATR
# EXPERIMENTAL PROTOCOL: potentiation of ACh at human M2 – CHO Gqi5 cells, calcium fluorescence, counter-screen, dose response (AID 588746)
# DETAILS: CHO hM2/Gqi5 calcium mobilization, Fluo-4 fluorescence
READOUT KIND: EC50

Query :: Look up EC50 for this compound: "Cc1nc2sc(C(=O)NC3CC3)c(N)c2c(C)c1Cl"
Result :: 548 nM
